system: T. cruzi Queretaro strain epimastigotes; assay: Growth of epimastigotes cultured in vitro (motile parasites counted, relative growth); format: cell-based, Trypanosoma cruzi; details: epimastigote growth, 24 h, initial screening done in 5 mL culture
Marks after values point to notes of the source that are not given here.
Hi there, I'd appreciate the recorded Epi ED50 (initial screening) for every entry that follows.

Nc1nc(N)c2cc(NCc3ccc([N+](=O)[O-])cc3)ccc2n1 [Compound 7] = >100 * (2) µM

For the 3 compounds below, give their Epi ED50 (initial screening) values.
1. COc1cc(CNc2ccc3nc(N)nc(N)c3c2)cc(OC)c1OC [Compound 14]
2. Nc1nc(N)c2cc(NCc3ccccc3[N+](=O)[O-])ccc2n1 [Compound 6]
3. Nc1nc(N)c2cc(NCc3ccccc3OC(F)(F)F)ccc2n1 [Compound 12]

Solution:
[">100 * (2) µM", "143 * (2) µM", "44 ± 3 (3) µM"]

Exercise: Value lookup for Epi ED50 (initial screening); key = Nc1nc(N)c2cc(NCc3cccc(O)c3)ccc2n1 [Compound 13]
Solution: >100 * (2) µM

###

tested on: HFF1 human foreskin fibroblasts; experiment: Viability of human foreskin fibroblasts (trypan blue exclusion); conditions: human, 24 h
Hi there, I'd appreciate the recorded HFF1 LD50 for every entry that follows.

These recorded examples may help you get a feel for the data.
Nc1nc(N)c2cc(NCc3ccc(Cl)cc3)ccc2n1 = 116 ± 13 (6) µM
Nc1nc(N)c2cc(NCc3ccccc3)ccc2n1 = >60 (4) µM
Nc1nc(N)c2cc(NCc3ccccc3Cl)ccc2n1 = 8.6 ± 2 (4) µM

For the 2 molecules below, give their HFF1 LD50 values.
1. Nc1nc(N)c2cc(NC(=O)c3ccccc3[N+](=O)[O-])ccc2n1
2. Nc1nc(N)c2cc(NC(=O)c3cccc([N+](=O)[O-])c3)ccc2n1

Solution:
1. >100 (6) µM
2. >100 (6) µM

Data provenance is paper PMC11435156.
